Test system: HCC-2998 colon
experiment.summary: NCI tumour cell line growth inhibition, 48 h
metric: TGI

Before answering, review these 3 worked examples.
Incoming: Quick check: TGI on HCC-2998 colon, item CCCC(=O)OC[n+]1cccc(-c2c(COC(=O)NC(C)C)c(COC(=O)NC(C)C)c3n2CCC3)c1 ?
Outgoing: > 100 µM

Incoming: # returns recorded TGI (system: HCC-2998 colon) for CN(C)CCCNc1nnc(NCCCN(C)C)c2c(=O)c3sccc3[nH]c12
Outgoing: 23.7 µM

Incoming: Hi! What's the reported TGI for CCCN(CCC)CCCNC(=O)c1cc2c(-c3ccc(OC)c(OC)c3)nn(C)c2s1 on HCC-2998 colon?
Outgoing: 37.7 µM

Let's switch to this compound now.
Incoming: I'm curious: which TGI was measured for CC(C)CC(=O)NC(NC(C)C)(C(F)(F)F)C(F)(F)F tested on HCC-2998 colon?
Outgoing: > 100 µM

----------
Overview of recorded GI50 for various molecules
Tested on: HS 578T breast
experiment.summary: NCI tumour cell line growth inhibition, 48 h

Incoming: Using the record for Clc1ccc(-c2nn3ncccc3c2-c2ccnc(Nc3ccccc3)n2)cc1 , report its GI50.
Outgoing: 6.4 µM

Next:
Incoming: Given the molecule N#Cc1cccc(NC(=O)c2oc3ccccc3c2-c2cnn(-c3ccccc3)c2)c1 , what is its reported GI50?
Outgoing: 171 µM

Incoming: I have this molecule here, C#COc1cccc(Nc2ncnc3ncc(NC(=O)CCl)cc23)c1 , and I need its recorded GI50.
Outgoing: > 62.5 µM

----------
Tested on: HS 578T breast
experiment.summary: NCI tumour cell line growth inhibition, 48 h
Measured TGI by item

Incoming: # returns recorded TGI (system: HS 578T breast) for C=C(C)[C@@H]1CCC2=C[C@@H](OC2=O)[C@@H](C(=C)C)C(=O)/C=C(/C)C(=O)C1
Outgoing: > 100 µM

Incoming: Give HS 578T breast TGI for CC(=O)OC(C)(C)N=Nc1ccc(Br)cc1
Outgoing: > 100 µM

Incoming: Record lookup: for HS 578T breast, what TGI belongs to O=c1cc(-c2ccccc2)oc2ccc(Oc3nnnn3-c3ccccc3)cc12 ?
Outgoing: > 83 µM

Would you kindly look at the next entry?
Incoming: Checklist item: TGI tested on HS 578T breast, entry COC(=O)Nc1nc2cc3c(cc2s1)OCCO3 , value?
Outgoing: > 50 µM

----------
Parameter: TGI. Scope: all listed entries.
System: UACC-257 melanoma
experiment.summary: NCI tumour cell line growth inhibition, 48 h

Some compounds with known TGI results, for comparison:
Incoming: Would you kindly share the measured TGI for CC12CC[C@H](O)C(C)(C)[C@H]1CC[C@](C)(O)C2COc1ccc2ccc(=O)oc2c1 (stereo partly drawn) ?
Outgoing: > 100 µM

Incoming: What does the record list as TGI for COC(=O)Nc1nc2cc3c(cc2s1)OCCO3 ?
Outgoing: > 50 µM

Now let's try a different one.
Incoming: Query (compound): CC(C)[Si](OC1=C(C(=O)N(C)c2ccccc2Cl)CCC1)(C(C)C)C(C)C ; field requested: TGI
Outgoing: 43.4 µM

----------
Test system: SK-MEL-28 melanoma
experiment.summary: NCI tumour cell line growth inhibition, 48 h
metric: TGI

Here is how some molecules turned out for TGI.
Incoming: Would you kindly share the measured TGI for O=c1c2cc(Br)cc(Br)c2[nH]c(=S)n1-c1ccccc1 ?
Outgoing: > 100 µM

Incoming: Entry CC1(C)C2CCC3(OCCO3)C1C1OC12 (stereo unspecified) has what TGI?
Outgoing: > 100 µM

Incoming: For N#Cc1cccc(NC(=O)c2oc3ccccc3c2-c2cnn(-c3ccccc3)c2)c1 , what is its reported TGI?
Outgoing: > 500 µM

Incoming: For the molecule shown here, C[C@H]1CC[C@@H]2[C@@H](C)[C@H]3[C@H](C[C@H]4[C@@H]5CC=C6C[C@@H](O)CC[C@]6(C)[C@H]5C[C@H](O)[C@]34C)N2C1 , give the reported TGI.
Outgoing: > 100 µM

Further cases:
Incoming: Field request: TGI | item: O=C(O)CCCCn1cnc2c(=S)nc[nH]c21
Outgoing: > 100 µM

Incoming: Recorded TGI of CC(C)OP(=O)(OC(C)C)/C(=N/N)NNc1ccc([N+](=O)[O-])cc1 , please.
Outgoing: > 100 µM
